Test: BET inhibitor-based combinations targeting novel dependencies in MECOM-rearranged (r) AML: OCI-AML3 cell line (AID 2202232); note: nearly all actives have a fitted effect of over 35% in size
Conditions: CellTiter-Glo luminescence, 48 h; OCI-AML3 viability; series mostly up to 46 µM
Results filed as inconclusive are left out. The source made the active and inactive calls. Calls come from the whole dose curve; as a rule, active = well fitted inhibition curve with a large enough effect; inconclusive = small, poorly fitted or top-dose-only effect; inactive = no such curve, though single readings can be large or run the other way.
Labels: 1 (yes) (active), 0 (no) (inactive)

[
  {
    "molecule": "CN(C)CCN(C)C(=O)c1ccc(NC(=O)Nc2ccc(-c3nc(N4CCOCC4)c4ccn(CC(F)(F)F)c4n3)cc2)cc1",
    "class label": "1 (yes)"
  },
  {
    "molecule": "CC(=O)c1cc2c(o1)C(=O)c1ccccc1C2=O",
    "class label": "1 (yes)"
  },
  {
    "molecule": "C[C@H]1O[C@@H](O[C@H]2[C@@H](O)C[C@H](O[C@H]3[C@@H](O)C[C@H](O[C@H]4CC[C@@]5(C)[C@H](CC[C@@H]6[C@@H]5C[C@@H](O)[C@]5(C)[C@@H](C7=CC(=O)OC7)CC[C@]65O)C4)O[C@@H]3C)O[C@@H]2C)C[C@H](O)[C@@H]1O",
    "class label": "1 (yes)"
  },
  {
    "molecule": "CC/C(=C(/c1ccc(O)cc1)c1ccc(OCCNC)cc1)c1ccccc1",
    "class label": "1 (yes)"
  },
  {
    "molecule": "CC[C@@]1(O)C(=O)OCc2c1cc1n(c2=O)Cc2c-1nc1cc(F)c(C)c3c1c2[C@@H](N)CC3",
    "class label": "1 (yes)"
  },
  {
    "molecule": "c1ccc2c(Cc3c[nH]c4ccccc34)c[nH]c2c1",
    "class label": "0 (no)"
  },
  {
    "molecule": "CCCCC[C@H](O)/C=C/[C@H]1[C@H](O)CC(=O)[C@@H]1CCCCCCC(=O)O",
    "class label": "1 (yes)"
  },
  {
    "molecule": "CC(C)(c1ccc(OCC(O)CO)cc1)c1ccc(OCC(O)CCl)cc1 (stereo not drawn)",
    "class label": "0 (no)"
  }
]

###

Assay: BET inhibitor-based combinations targeting novel dependencies in MECOM-rearranged (r) AML: AML-191 cell line (AID 2202236; note: nearly all actives have a fitted effect of over 35% in size)
Conditions: AML-191 viability, CellTiter-Glo luminescence, 48 h; series mostly up to 46 µM
Inconclusive results are not listed. Active and inactive are the calls of the source. Calls follow the shape of the dose curve; as a rule, active = well fitted inhibition curve with a large enough effect; inconclusive = small, poorly fitted or top-dose-only effect; inactive = flat fitted curve, though single readings scatter.
Outcomes: active, inactive

[
  {
    "compound": "C[C@@H](O[C@H]1OCCN(Cc2n[nH]c(=O)[nH]2)[C@@H]1c1ccc(F)cc1)c1cc(C(F)(F)F)cc(C(F)(F)F)c1",
    "class label": "active"
  },
  {
    "compound": "CCC1CCCCN1C(=O)n1ncc(C(O)(c2ccccc2)c2ccccc2)n1 (stereo not drawn)",
    "class label": "active"
  },
  {
    "compound": "O=C(O)c1ccccc1-c1ccc(/C=c2\\sc3nc4cc(Br)cnc4n3c2=O)o1",
    "class label": "inactive"
  },
  {
    "compound": "CC[C@H](C)C(=O)O[C@H]1C[C@H](O)C=C2C=C[C@H](C)[C@H](CC[C@@H](O)C[C@@H](O)CC(=O)O)[C@H]21",
    "class label": "inactive"
  },
  {
    "compound": "O=C(Nc1ccccc1)Nc1ccc(-c2ccc(C(=O)[C@@H]3CCC[C@H]3C(=O)O)cc2)cc1",
    "class label": "inactive"
  },
  {
    "compound": "CC[C@H](NC(=O)[C@H](C)NC)C(=O)N1C[C@@H](O)C[C@H]1Cc1c(-c2[nH]c3cc(F)ccc3c2C[C@@H]2C[C@H](O)CN2C(=O)[C@H](CC)NC(=O)[C@H](C)NC)[nH]c2cc(F)ccc12",
    "class label": "active"
  },
  {
    "compound": "Cc1cc2cc(Oc3ccnc(Nc4cccc(CS(=O)(=O)NCCN(C)C)c4)n3)ccc2[nH]1",
    "class label": "active"
  },
  {
    "compound": "COc1cc(OC)cc(N2CCN(C(=O)Nc3nc4cc(F)ccc4nc3OC)CC2)c1",
    "class label": "active"
  },
  {
    "compound": "C[C@H](Nc1nc(N[C@H](C)C(F)(F)F)nc(-c2cccc(Cl)n2)n1)C(F)(F)F",
    "class label": "inactive"
  },
  {
    "compound": "COC(=O)c1ccc([C@H]2c3[nH]c4ccccc4c3C[C@H](C(=O)OC)N2C(=O)CCl)cc1",
    "class label": "active"
  },
  {
    "compound": "COc1cc2c(Oc3ccc4[nH]c(C)cc4c3F)ccnc2cc1OCC1(N)CC1",
    "class label": "active"
  },
  {
    "compound": "COc1cc2c3c(n(CCCN4CCOCC4)c(=O)c2cc1OC)-c1cc2c(cc1C3=O)OCO2",
    "class label": "active"
  },
  {
    "compound": "COc1ccnc(CS(=O)c2nc3ccc(OC(F)F)cc3[nH]2)c1OC (stereo not drawn)",
    "class label": "inactive"
  },
  {
    "compound": "CC(C)(O)CS(=O)(=O)Nc1ccc2c(c1)CCN(C(=O)COc1cccnc1)C2",
    "class label": "active"
  },
  {
    "compound": "CCCCc1ccc2nc(NC(=O)OC)[nH]c2c1",
    "class label": "active"
  },
  {
    "compound": "C[N+](C)(C)CC(=O)O",
    "class label": "inactive"
  },
  {
    "compound": "COCCNCc1ccc(-c2cc3nccc(Oc4ccc(NC(=S)NC(=O)Cc5ccc(F)cc5)cc4F)c3s2)nc1",
    "class label": "active"
  },
  {
    "compound": "N#CC(c1ccnc(NCCc2cccnc2)n1)c1nc2ccccc2s1 (stereo not drawn)",
    "class label": "active"
  }
]
